test system: HCC-366; experiment: relative viability (nuclei count vs DMSO), 5 days (fraction); higher = more cells survive; conditions: first compound 0.1 µM
Label rule met when relative viability is strictly below 0.3; at or above that, label rule not met.

Is the reported relative viability for CCN(CC)CCCCNc1ncc2cc(-c3cc(OC)cc(OC)c3)c(NC(=O)NC(C)(C)C)nc2n1 + Nc1nc2[nH]cc(CCc3ccc(C(=O)N[C@@H](CCC(=O)O)C(=O)O)cc3)c2c(=O)[nH]1 [Pemetrexed] (partner 0.2 µM) strictly below 0.3?
rule met

Is the reported relative viability for O=c1cc(N2CCOCC2)oc2c(-c3cccc4c3sc3ccccc34)cccc12 + COc1cccc2cc(-c3nc([C@H]4CC[C@H](C(=O)O)CC4)n4ncnc(N)c34)[nH]c12 [OSI-027] (partner 0.5 µM) strictly below 0.3?
rule not met

Is the reported relative viability for CCN(CC)CCCCNc1ncc2cc(-c3cc(OC)cc(OC)c3)c(NC(=O)NC(C)(C)C)nc2n1 + Cc1nc(NC(=O)N2CCC[C@H]2C(N)=O)sc1-c1ccnc(C(C)(C)C(F)(F)F)c1 [Alpelisib] (partner 2 µM) strictly below 0.3?
rule not met

Is the reported relative viability for CCN(CC)CCCCNc1ncc2cc(-c3cc(OC)cc(OC)c3)c(NC(=O)NC(C)(C)C)nc2n1 + CS(=O)(=O)N1CCN(Cc2cc3nc(-c4cccc5[nH]ncc45)nc(N4CCOCC4)c3s2)CC1 [Pictilisib] (partner 1 µM) strictly below 0.3?
rule met

Is the reported relative viability for CCN(CC)CCCCNc1ncc2cc(-c3cc(OC)cc(OC)c3)c(NC(=O)NC(C)(C)C)nc2n1 + CC(C)C[C@H](NC(=O)[C@H](Cc1ccccc1)NC(=O)c1cnccn1)B(O)O [Bortezomib] (partner 0.002 µM) strictly below 0.3?
rule not met

Is the reported relative viability for CCN(CC)CCCCNc1ncc2cc(-c3cc(OC)cc(OC)c3)c(NC(=O)NC(C)(C)C)nc2n1 + O=C(c1cc(Cc2n[nH]c(=O)c3ccccc23)ccc1F)N1CCN(C(=O)C2CC2)CC1 [Olaparib] (partner 8 µM) strictly below 0.3?
rule not met

Is the reported relative viability for CCN(CC)CCCCNc1ncc2cc(-c3cc(OC)cc(OC)c3)c(NC(=O)NC(C)(C)C)nc2n1 + NC(=O)Nc1cc(-c2cccc(F)c2)sc1C(=O)N[C@H]1CCCNC1 [AZD7762] (partner 0.2 µM) strictly below 0.3?
rule met

----------
system: LXF-289; assay: relative viability (nuclei count vs DMSO), 5 days (fraction); higher = more cells survive; details: first compound 6.325 µM
PROPERTY MEASURED: relative viability
Enter the number alone.

The molecule identified as COCC1(CO)C(=O)C2CCN1CC2 (stereo not drawn) [PRIMA-1MET] + COc1cccc2cc(-c3nc([C@H]4CC[C@H](C(=O)O)CC4)n4ncnc(N)c34)[nH]c12 [OSI-027] (partner 0.5 µM) registered its relative viability at 0.874

The molecule identified as COCC1(CO)C(=O)C2CCN1CC2 (stereo not drawn) [PRIMA-1MET] + Cc1nc(NC(=O)N2CCC[C@H]2C(N)=O)sc1-c1ccnc(C(C)(C)C(F)(F)F)c1 [Alpelisib] (partner 2 µM) registered its relative viability at 1.04

The molecule identified as COCC1(CO)C(=O)C2CCN1CC2 (stereo not drawn) [PRIMA-1MET] + CC1(C)CCC(c2ccc(Cl)cc2)=C(CN2CCN(c3ccc(C(=O)NS(=O)(=O)c4ccc(N[C@H](CCN5CCOCC5)CSc5ccccc5)c(S(=O)(=O)C(F)(F)F)c4)cc3)CC2)C1 [Navitoclax] (partner 0.5 µM) registered its relative viability at 0.986

Taken from the supplement of paper PMC10307832.
